Each record here notes measured MGMT activity (% of WT) DMSO.
System: U251 human glioblastoma cell line
Assay: in vitro FM-HCR assay of MGMT activity (mPlum O^6MeG reporter plasmid)
Assay type: cell-based
Conditions: DMSO condition; relative to wild-type MGMT in same condition

Which value of MGMT activity (% of WT) DMSO has been reported for L33F: MGMT polypeptide with mutation L33F (protein) MDKDCEMKRTTLDSPLGKLELSGCEQGLHEIKFLGKGTSAADAVEVPAPAAVLGGPEPLMQCTAWLNAYFHQPEAIEEFPVPALHHPVFQQESFTRQVLWKLLKVVKFGEVISYQQLAALAGNPKAARAVGGAMRGNPVPILIPCHRVVCSSGAVGNYSGGLAVKEWLLAHEGHRLGKPGLGGSSGLAGAWLKGAGATSGSPPAGRN in the records?
129.1 % of WT

---
Quick one: MGMT activity (% of WT) DMSO for M134F: MGMT polypeptide with mutation M134F (protein) MDKDCEMKRTTLDSPLGKLELSGCEQGLHEIKLLGKGTSAADAVEVPAPAAVLGGPEPLMQCTAWLNAYFHQPEAIEEFPVPALHHPVFQQESFTRQVLWKLLKVVKFGEVISYQQLAALAGNPKAARAVGGAFRGNPVPILIPCHRVVCSSGAVGNYSGGLAVKEWLLAHEGHRLGKPGLGGSSGLAGAWLKGAGATSGSPPAGRN ?
36.0 % of WT

Note, next up: G160D: MGMT polypeptide with mutation G160D (protein) MDKDCEMKRTTLDSPLGKLELSGCEQGLHEIKLLGKGTSAADAVEVPAPAAVLGGPEPLMQCTAWLNAYFHQPEAIEEFPVPALHHPVFQQESFTRQVLWKLLKVVKFGEVISYQQLAALAGNPKAARAVGGAMRGNPVPILIPCHRVVCSSGAVGNYSDGLAVKEWLLAHEGHRLGKPGLGGSSGLAGAWLKGAGATSGSPPAGRN
80.4 % of WT
